Measured inhibition at 10 µM by item
TARGET DESC: serotonin transporter SERT (Homo sapiens, UniProt P31645)
Construct: host or cells: HEK-293
Sequence (P31645 whole entry): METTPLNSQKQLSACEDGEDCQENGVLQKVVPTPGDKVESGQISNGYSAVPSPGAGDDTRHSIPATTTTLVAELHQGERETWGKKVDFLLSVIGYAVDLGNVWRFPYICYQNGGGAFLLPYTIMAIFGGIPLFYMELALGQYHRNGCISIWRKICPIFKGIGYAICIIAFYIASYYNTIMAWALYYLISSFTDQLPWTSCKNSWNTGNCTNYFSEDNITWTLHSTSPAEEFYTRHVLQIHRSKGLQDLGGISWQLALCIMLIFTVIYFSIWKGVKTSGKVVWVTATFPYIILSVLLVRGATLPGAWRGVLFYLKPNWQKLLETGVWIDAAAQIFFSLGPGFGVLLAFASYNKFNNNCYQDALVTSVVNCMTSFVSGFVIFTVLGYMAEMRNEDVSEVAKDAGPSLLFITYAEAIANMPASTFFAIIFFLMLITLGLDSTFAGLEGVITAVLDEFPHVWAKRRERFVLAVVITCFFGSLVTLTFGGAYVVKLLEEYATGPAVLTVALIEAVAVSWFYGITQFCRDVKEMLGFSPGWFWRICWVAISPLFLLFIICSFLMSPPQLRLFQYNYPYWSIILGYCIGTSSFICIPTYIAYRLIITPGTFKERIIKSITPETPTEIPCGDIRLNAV
METHOD SUMMARY: Uptake of serotonin (5-HT) in human HEK-293 cells, quantitation of [3H] serotonin
Assay type: cell-based
TEST PARAMETERS: HEK293, 0.25 h, 10 micromolar concentration, 15 minutes @ 25° C., read-out: Activity Range: antagonism of uptake of serotonin (5-HT)
Where a name gives a salt, the structure may show the parent alone.

{"MOLECULE": "O=C(O)c1ccc(OC[C@@H]2CNCC[C@H]2c2ccc(F)cc2)cc1 [Example 1, hydrochloride]", "inhibition at 10 µM": "> 50%"}
{"MOLECULE": "NC(=O)NCCNC(=O)c1ccc(OC[C@@H]2CNCC[C@H]2c2ccc(F)cc2)cc1 [Example 9, hydrochloride]", "inhibition at 10 µM": "> 50%"}
{"MOLECULE": "O=C(O)COc1ccc(OC[C@@H]2CNCC[C@H]2c2ccc(F)cc2)cc1 [Example 15, hydrochloride]", "inhibition at 10 µM": "20 to 40%"}
{"MOLECULE": "O=C(O)c1ccc(OC[C@@H]2CNCC[C@H]2c2ccc(F)cc2)cc1O [Example 3, hydrochloride]", "inhibition at 10 µM": "> 50%"}
{"MOLECULE": "OCCOc1ccc(OC[C@@H]2CNCC[C@H]2c2ccc(F)cc2)cc1 [Example 13, hydrochloride]", "inhibition at 10 µM": "> 50%"}
{"MOLECULE": "C[N+]1(C)CC[C@@H](c2ccc(F)cc2)[C@H](CCc2ccc3c(c2)OCO3)C1 [Example 17]", "inhibition at 10 µM": "> 50%"}
{"MOLECULE": "O=C(O)c1cccc(OC[C@@H]2CNCC[C@H]2c2ccc(F)cc2)c1 [Example 2, hydrochloride]", "inhibition at 10 µM": "40 to 50%"}
{"MOLECULE": "CN(C)CCNC(=O)c1ccc(OC[C@@H]2CNCC[C@H]2c2ccc(F)cc2)cc1 [Example 6, hydrochloride]", "inhibition at 10 µM": "> 50%"}
{"MOLECULE": "NCCNC(=O)c1ccc(OC[C@@H]2CNCC[C@H]2c2ccc(F)cc2)cc1 [Example 5, hydrochloride]", "inhibition at 10 µM": "> 50%"}
{"MOLECULE": "O=C(O)COCCOc1ccc(OC[C@@H]2CNCC[C@H]2c2ccc(F)cc2)cc1 [Example 16, hydrochloride]", "inhibition at 10 µM": "20 to 40%"}
{"MOLECULE": "COc1ccc(OC[C@@H]2CNCC[C@H]2c2ccc(F)cc2)cc1C(=O)O [Example 4, hydrochloride]", "inhibition at 10 µM": "> 50%"}
{"MOLECULE": "CN(C)CCCOc1ccc(OC[C@@H]2CNCC[C@H]2c2ccc(F)cc2)cc1 [Example 12, hydrochloride]", "inhibition at 10 µM": "> 50%"}
{"MOLECULE": "OCCOCCOc1ccc(OC[C@@H]2CNCC[C@H]2c2ccc(F)cc2)cc1 [Example 14, hydrochloride]", "inhibition at 10 µM": "20 to 40%"}
{"MOLECULE": "CN(C)CCOc1ccc(OC[C@@H]2CNCC[C@H]2c2ccc(F)cc2)cc1 [Example 11, hydrochloride]", "inhibition at 10 µM": "40 to 50%"}
{"MOLECULE": "NC(N)=NCCNC(=O)c1ccc(OC[C@@H]2CNCC[C@H]2c2ccc(F)cc2)cc1 [Example 8]", "inhibition at 10 µM": "> 50%"}
{"MOLECULE": "CN(C)CCN(C)C(=O)c1ccc(OC[C@@H]2CNCC[C@H]2c2ccc(F)cc2)cc1 [Example 7, hydrochloride]", "inhibition at 10 µM": "> 50%"}
{"MOLECULE": "NCCOc1ccc(OC[C@@H]2CNCC[C@H]2c2ccc(F)cc2)cc1 [Example 10, hydrochloride]", "inhibition at 10 µM": "40 to 50%"}

Sourced from patent US20250042855A1
